Biological target: hemagglutinin (HA) of influenza B/Lee/40 (Old) (influenza B virus) (UniProt P03460)
Sequence (P03460 16-584 limits assumed): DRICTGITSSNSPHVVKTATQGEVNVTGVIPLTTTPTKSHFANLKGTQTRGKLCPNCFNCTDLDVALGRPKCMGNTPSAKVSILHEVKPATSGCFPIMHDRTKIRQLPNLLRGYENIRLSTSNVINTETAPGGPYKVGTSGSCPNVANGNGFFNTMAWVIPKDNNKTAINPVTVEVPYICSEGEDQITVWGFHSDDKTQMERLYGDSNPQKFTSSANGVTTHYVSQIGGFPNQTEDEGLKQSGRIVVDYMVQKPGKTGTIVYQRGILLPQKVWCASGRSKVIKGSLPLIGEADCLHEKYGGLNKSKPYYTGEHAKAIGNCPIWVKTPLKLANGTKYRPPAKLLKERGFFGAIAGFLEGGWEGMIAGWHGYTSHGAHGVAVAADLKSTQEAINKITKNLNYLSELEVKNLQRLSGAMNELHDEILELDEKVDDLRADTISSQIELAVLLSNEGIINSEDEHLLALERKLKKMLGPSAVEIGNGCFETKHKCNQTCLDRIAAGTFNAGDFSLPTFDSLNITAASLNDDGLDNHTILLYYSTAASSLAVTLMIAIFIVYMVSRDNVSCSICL
Experiment: cell-based or functional assay
experimental endpoint: VNA IC50 (nM)
Please state the figure in nM; there is no need to write the unit.

Study these solved cases before continuing.
{"columns": ["binder", "VNA IC50 [nM]"],
 "data": [
  ["SD1087 (VHH) VHH: EVQLVESGGGLVQPGGSLRLSCVISGLSLDTYAVGWFRQAPGKEREGITCISSGHGMTYYADSVKGRFTVSTDNAKNTVYLQMNGLQPEDTARYYCATESRYYCSDNWPAPQRYIYWGQGTQVTVSS", 22],
  ["SD3073 (VHH) VHH: EVQLVESGGGLVQPGGSLRLSCAISGLSLDTYAVGWFRQAPGKEREGVSCISSGHGMTYYADSVKGRFTVSTDNSKNTLYLQMNSLRAEDTAVYYCATESRYYCSDNWPAPQRYIYWGQGTLVTVSS", 59],
  ["SD3093 (VHH) VHH: EVQLVESGGGLVQPGGSLRLSCAISGLSLDTYAVGWFRQAPGKEREGVSCISSGHGMTYYADSVKGRFTISTDNSKNTVYLQMNSLRAEDTAVYYCATESRYYCSDNWPAPQRYIYWGQGTLVTVSS", 32]
]}

Switching to the query record.
## Input Which VNA IC50 is reported for this binder? SD3088 (VHH) VHH: EVQLLESGGGLVQPGGSLRLSCAASGFTLENKAIGWFRQAPGKEREGVLCISKSGSWTYYADSVKGRFTISRDNSKNTLYLQMNSLRAEDTAVYYCATTTAGGGLCWDGTTFSRLASSWGQGTLVTVSS
## Output 127
